# Assay name: in vivo
# Design: species or system CF-1 normal mice
# Condition notes: CF-1, mouse, iv, total radioactivity, Muscle uptake
Reported endpoint: tissue uptake at 1 h (%ID/g)
Please reply with the bare figure in %ID/g and do not write the unit itself.

Examples with their reported tissue uptake at 1 h follow.
compound="CC(C)C[C@H](NC(=O)C[C@H](O)[C@H](CC(C)C)NC(=O)[C@H](Cc1c[nH]cn1)NC(=O)CNC(=O)[C@@H](NC(=O)[C@H](C)NC(=O)[C@H](Cc1c[nH]c2ccccc12)NC(=O)[C@H](CCC(N)=O)NC(=O)[C@@H](Cc1ccccc1)NC(=O)CCCCNC(=O)[C@H](CCCCNC(=O)CN1CCN(CC(=O)O)CCN(CC(=O)O)CCN(CC(=O)O)CC1)NC(=O)CCCCCNC(=O)CC[C@H](NC(=O)N[C@@H](CCC(=O)O)C(=O)O)C(=O)O)C(C)C)C(N)=O [DUPA-6-Ahx-Lys(^111In-DOTA)-5-Ava-RM2, metal not drawn]" reported_endpoint="tissue uptake at 1 h" units_text=%ID/g reported=0.06
compound="CC(C)C[C@H](NC(=O)C[C@H](O)[C@H](CC(C)C)NC(=O)[C@H](Cc1c[nH]cn1)NC(=O)CNC(=O)[C@@H](NC(=O)[C@H](C)NC(=O)[C@H](Cc1c[nH]c2ccccc12)NC(=O)[C@H](CCC(N)=O)NC(=O)[C@@H](Cc1ccccc1)NC(=O)CCCCCCCNC(=O)[C@H](CCCCNC(=O)CN1CCN(CC(=O)O)CCN(CC(=O)O)CCN(CC(=O)O)CC1)NC(=O)CCCCCNC(=O)CC[C@H](NC(=O)N[C@@H](CCC(=O)O)C(=O)O)C(=O)O)C(C)C)C(N)=O [DUPA-6-Ahx-Lys(^111In-DOTA)-8-Aoc-RM2, metal not drawn]" reported_endpoint="tissue uptake at 1 h" units_text=%ID/g reported=0.1
compound="CC(C)C[C@H](NC(=O)C[C@H](O)[C@H](CC(C)C)NC(=O)[C@H](Cc1c[nH]cn1)NC(=O)CNC(=O)[C@@H](NC(=O)[C@H](C)NC(=O)[C@H](Cc1c[nH]c2ccccc12)NC(=O)[C@H](CCC(N)=O)NC(=O)[C@@H](Cc1ccccc1)NC(=O)CCCCCNC(=O)[C@H](CCCCNC(=O)CN1CCN(CC(=O)O)CCN(CC(=O)O)CCN(CC(=O)O)CC1)NC(=O)CCCCCNC(=O)CC[C@H](NC(=O)N[C@@H](CCC(=O)O)C(=O)O)C(=O)O)C(C)C)C(N)=O [DUPA-6-Ahx-Lys(^111In-DOTA)-6-Ahx-RM2, metal not drawn]" reported_endpoint="tissue uptake at 1 h" units_text=%ID/g reported=0.07

Could you now consider this next compound?
Requested read-out: tissue uptake at 1 h. Entry: CC(C)C[C@H](NC(=O)C[C@H](O)[C@H](CC(C)C)NC(=O)[C@H](Cc1c[nH]cn1)NC(=O)CNC(=O)[C@@H](NC(=O)[C@H](C)NC(=O)[C@H](Cc1c[nH]c2ccccc12)NC(=O)[C@H](CCC(N)=O)NC(=O)[C@@H](Cc1ccccc1)NC(=O)c1ccc(NC(=O)[C@H](CCCCNC(=O)CN2CCN(CC(=O)O)CCN(CC(=O)O)CCN(CC(=O)O)CC2)NC(=O)CCCCCNC(=O)CC[C@H](NC(=O)N[C@@H](CCC(=O)O)C(=O)O)C(=O)O)cc1)C(C)C)C(N)=O [DUPA-6-Ahx-Lys(^111In-DOTA)-AMBA-RM2, metal not drawn]
0.08

###

# Assay name: in vivo
# Parameters: species or system CF-1 normal mice
# Condition notes: CF-1, mouse, iv, total radioactivity, Lung uptake
Reported endpoint: tissue uptake at 1 h (%ID/g)
Please reply with the bare figure in %ID/g and do not write the unit itself.

Requested read-out: tissue uptake at 1 h. Entry: CC(C)C[C@H](NC(=O)C[C@H](O)[C@H](CC(C)C)NC(=O)[C@H](Cc1c[nH]cn1)NC(=O)CNC(=O)[C@@H](NC(=O)[C@H](C)NC(=O)[C@H](Cc1c[nH]c2ccccc12)NC(=O)[C@H](CCC(N)=O)NC(=O)[C@@H](Cc1ccccc1)NC(=O)CCCCCCCNC(=O)[C@H](CCCCNC(=O)CN1CCN(CC(=O)O)CCN(CC(=O)O)CCN(CC(=O)O)CC1)NC(=O)CCCCCNC(=O)CC[C@H](NC(=O)N[C@@H](CCC(=O)O)C(=O)O)C(=O)O)C(C)C)C(N)=O [DUPA-6-Ahx-Lys(^111In-DOTA)-8-Aoc-RM2, metal not drawn]
0.37

###

tissue uptake at 1 h overview
# Assay name: in vivo
# Set-up: species or system CF-1 normal mice
# Condition notes: CF-1, mouse, iv, total radioactivity, Lung uptake
Please reply with the bare figure in %ID/g and do not write the unit itself.

Examples with their reported tissue uptake at 1 h follow.
compound="CC(C)C[C@H](NC(=O)C[C@H](O)[C@H](CC(C)C)NC(=O)[C@H](Cc1c[nH]cn1)NC(=O)CNC(=O)[C@@H](NC(=O)[C@H](C)NC(=O)[C@H](Cc1c[nH]c2ccccc12)NC(=O)[C@H](CCC(N)=O)NC(=O)[C@@H](Cc1ccccc1)NC(=O)c1ccc(NC(=O)[C@H](CCCCNC(=O)CN2CCN(CC(=O)O)CCN(CC(=O)O)CCN(CC(=O)O)CC2)NC(=O)CCCCCNC(=O)CC[C@H](NC(=O)N[C@@H](CCC(=O)O)C(=O)O)C(=O)O)cc1)C(C)C)C(N)=O [DUPA-6-Ahx-Lys(^111In-DOTA)-AMBA-RM2, metal not drawn]" units_text=%ID/g reported=1.01
compound="CC(C)C[C@H](NC(=O)C[C@H](O)[C@H](CC(C)C)NC(=O)[C@H](Cc1c[nH]cn1)NC(=O)CNC(=O)[C@@H](NC(=O)[C@H](C)NC(=O)[C@H](Cc1c[nH]c2ccccc12)NC(=O)[C@H](CCC(N)=O)NC(=O)[C@@H](Cc1ccccc1)NC(=O)CCCCNC(=O)[C@H](CCCCNC(=O)CN1CCN(CC(=O)O)CCN(CC(=O)O)CCN(CC(=O)O)CC1)NC(=O)CCCCCNC(=O)CC[C@H](NC(=O)N[C@@H](CCC(=O)O)C(=O)O)C(=O)O)C(C)C)C(N)=O [DUPA-6-Ahx-Lys(^111In-DOTA)-5-Ava-RM2, metal not drawn]" units_text=%ID/g reported=0.68

Requested read-out: tissue uptake at 1 h. Entry: CC(C)C[C@H](NC(=O)C[C@H](O)[C@H](CC(C)C)NC(=O)[C@H](Cc1c[nH]cn1)NC(=O)CNC(=O)[C@@H](NC(=O)[C@H](C)NC(=O)[C@H](Cc1c[nH]c2ccccc12)NC(=O)[C@H](CCC(N)=O)NC(=O)[C@@H](Cc1ccccc1)NC(=O)CCCCCNC(=O)[C@H](CCCCNC(=O)CN1CCN(CC(=O)O)CCN(CC(=O)O)CCN(CC(=O)O)CC1)NC(=O)CCCCCNC(=O)CC[C@H](NC(=O)N[C@@H](CCC(=O)O)C(=O)O)C(=O)O)C(C)C)C(N)=O [DUPA-6-Ahx-Lys(^111In-DOTA)-6-Ahx-RM2, metal not drawn]
0.86

###

# Assay name: in vivo
# Design: species or system CF-1 normal mice
# Condition notes: CF-1, mouse, iv, total radioactivity, Pancreas uptake
Reported endpoint: tissue uptake at 1 h (%ID/g)
Please reply with the bare figure in %ID/g and do not write the unit itself.

Requested read-out: tissue uptake at 1 h. Entry: CC(C)C[C@H](NC(=O)C[C@H](O)[C@H](CC(C)C)NC(=O)[C@H](Cc1c[nH]cn1)NC(=O)CNC(=O)[C@@H](NC(=O)[C@H](C)NC(=O)[C@H](Cc1c[nH]c2ccccc12)NC(=O)[C@H](CCC(N)=O)NC(=O)[C@@H](Cc1ccccc1)NC(=O)CCCCCCCNC(=O)[C@H](CCCCNC(=O)CN1CCN(CC(=O)O)CCN(CC(=O)O)CCN(CC(=O)O)CC1)NC(=O)CCCCCNC(=O)CC[C@H](NC(=O)N[C@@H](CCC(=O)O)C(=O)O)C(=O)O)C(C)C)C(N)=O [DUPA-6-Ahx-Lys(^111In-DOTA)-8-Aoc-RM2, metal not drawn]
5.45

Reference for the values: patent US11167048B2
